# System: Nucleic Acid
# Assay: Apparent binding affinity to herring sperm DNA at 25 degree Celsius in PBS buffer with pH 7.4
# Type: nucleic-acid assay
# Measurement context: Clupeidae
Measure: log10 Ka (log10 of the value in M⁻¹)

Compound: COc1cccc2c1C(=O)c1c(O)c3c(c(O)c1C2=O)C[C@@](O)(C(C)=O)C[C@@H]3O[C@H]1C[C@H](NC(=O)[C@H](CC(C)C)NC(=O)[C@H](C)N)[C@H](O)[C@H](C)O1
log10 Ka: 4.30
//
Compound: COc1cccc2c1C(=O)c1c(O)c3c(c(O)c1C2=O)C[C@@](O)(C(C)=O)C[C@@H]3O[C@H]1C[C@H](NC(=O)[C@H](C)NC(=O)[C@@H](N)CC(C)C)[C@H](O)[C@H](C)O1
log10 Ka: 4.60
//
Compound: COc1cccc2c1C(=O)c1c(O)c3c(c(O)c1C2=O)C[C@@](O)(C(C)=O)C[C@@H]3OC1CC(NC(=O)C(N)C(C)C)C(O)C(C)O1 (some centres undefined)
log10 Ka: 5.04
//
Compound: COc1cccc2c1C(=O)c1c(O)c3c(c(O)c1C2=O)C[C@@](O)(C(C)=O)C[C@@H]3O[C@H]1C[C@H](N)[C@H](O)[C@H](C)O1
log10 Ka: 5.49
//
Compound: CCC(C)C(N)C(=O)NC1CC(O[C@H]2C[C@](O)(C(C)=O)Cc3c(O)c4c(c(O)c32)C(=O)c2c(OC)cccc2C4=O)OC(C)C1O (some centres undefined)
log10 Ka: 5.04
//
Compound: COc1cccc2c1C(=O)c1c(O)c3c(c(O)c1C2=O)C[C@@](O)(C(C)=O)C[C@@H]3OC1CC(NC(=O)C(CC(C)C)NC(=O)CN)C(O)C(C)O1 (some centres undefined)
log10 Ka: 4.48
//
Compound: COc1cccc2c1C(=O)c1c(O)c3c(c(O)c1C2=O)C[C@@](O)(C(C)=O)C[C@@H]3OC1CC(NC(=O)CN)C(O)C(C)O1 (some centres undefined)
log10 Ka: 5.11
//
Compound: COc1cccc2c1C(=O)c1c(O)c3c(c(O)c1C2=O)C[C@@](O)(C(C)=O)C[C@@H]3O[C@H]1C[C@H](NC(=O)[C@H](C)N)[C@H](O)[C@H](C)O1
log10 Ka: 4.95
//
Compound: COc1cccc2c1C(=O)c1c(O)c3c(c(O)c1C2=O)C[C@@](O)(C(C)=O)C[C@@H]3OC1CC(NC(=O)C(N)CC(C)C)C(O)C(C)O1 (some centres undefined)
log10 Ka: 5.11

---

# Test system: Nucleic Acid
# Assay: Maximal binding (nmax) sites to herring sperm DNA. Estimated from Scatchard plots
# Type: nucleic-acid assay
# Measurement context: Clupeidae
Measure: Maximal binding

Molecule: COc1cccc2c1C(=O)c1c(O)c3c(c(O)c1C2=O)C[C@@](O)(C(C)=O)C[C@@H]3OC1CC(NC(=O)CN)C(O)C(C)O1 (some centres undefined)
Reported value: 0.16

Molecule: COc1cccc2c1C(=O)c1c(O)c3c(c(O)c1C2=O)C[C@@](O)(C(C)=O)C[C@@H]3OC1CC(NC(=O)C(N)CC(C)C)C(O)C(C)O1 (some centres undefined)
Reported value: 0.2

Molecule: COc1cccc2c1C(=O)c1c(O)c3c(c(O)c1C2=O)C[C@@](O)(C(C)=O)C[C@@H]3O[C@H]1C[C@H](NC(=O)[C@H](C)NC(=O)[C@@H](N)CC(C)C)[C@H](O)[C@H](C)O1
Reported value: 0.12

Molecule: CCC(C)C(N)C(=O)NC1CC(O[C@H]2C[C@](O)(C(C)=O)Cc3c(O)c4c(c(O)c32)C(=O)c2c(OC)cccc2C4=O)OC(C)C1O (some centres undefined)
Reported value: 0.19

Molecule: COc1cccc2c1C(=O)c1c(O)c3c(c(O)c1C2=O)C[C@@](O)(C(C)=O)C[C@@H]3OC1CC(NC(=O)C(N)C(C)C)C(O)C(C)O1 (some centres undefined)
Reported value: 0.18

Molecule: COc1cccc2c1C(=O)c1c(O)c3c(c(O)c1C2=O)C[C@@](O)(C(C)=O)C[C@@H]3O[C@H]1C[C@H](N)[C@H](O)[C@H](C)O1
Reported value: 0.16

Molecule: COc1cccc2c1C(=O)c1c(O)c3c(c(O)c1C2=O)C[C@@](O)(C(C)=O)C[C@@H]3O[C@H]1C[C@H](NC(=O)[C@H](CC(C)C)NC(=O)[C@H](C)N)[C@H](O)[C@H](C)O1
Reported value: 0.17

Molecule: COc1cccc2c1C(=O)c1c(O)c3c(c(O)c1C2=O)C[C@@](O)(C(C)=O)C[C@@H]3O[C@H]1C[C@H](NC(=O)[C@H](C)N)[C@H](O)[C@H](C)O1
Reported value: 0.19

Molecule: COc1cccc2c1C(=O)c1c(O)c3c(c(O)c1C2=O)C[C@@](O)(C(C)=O)C[C@@H]3OC1CC(NC(=O)C(CC(C)C)NC(=O)CN)C(O)C(C)O1 (some centres undefined)
Reported value: 0.14
